Recorded GI50 by entry
System: DLD-1
Assay: NCI tumour cell line growth inhibition, 48 h
The source made the active and inactive calls. No stated cut-off is given here; in the data, active = GI50 up to about 1.1 µM and inactive = higher.

Some compounds with known GI50 results, for comparison:
COMPOUND | GI50
CC(C)=CC1CC(=O)C1(C)Sc1ccccc1 (stereo unspecified) | 52.8 µM (inactive)
N/N=C1\c2ccccc2C2/C(=N\N)c3ccccc3C12 (stereo unspecified) | > 100 µM (inactive)

Provide only the value of recorded GI50 for CCCCCCCCC(=O)N(C)C1C2CN3CCC(O2)C13 (stereo unspecified)
> 100 µM (inactive)

Look up and state reported GI50 for CC(O)C(C(=O)O)N(CC1(O)OCC(O)C(O)C1O)N=O (stereo unspecified)
> 100 µM (inactive)

====

System: DU-145
Assay: NCI tumour cell line growth inhibition, 48 h
Active and inactive are the calls of the source. Rule as the data show it: active = GI50 up to about 1.1 µM and inactive = higher.
Please answer using one outcome listed in true (active), false (inactive)

MOLECULE | SYSTEM_TESTED | CLASS_ASSIGNMENT
CCOC1NC(=O)c2ccccc21 (stereo unspecified) | DU-145 | false

Which outcome did this test record for the molecule "CC(=O)Nc1ccc2nncnc2c1" ?
false

Call for entry "COc1ccc(NCn2nc(CCCCCCCCc3nn(CNc4ccc(OC)cc4)c(=S)o3)oc2=S)cc1" :
false

====

System: DMS-114
Assay: NCI tumour cell line growth inhibition, 48 h
The source made the active and inactive calls. Rule as the data show it: active = GI50 up to about 1.1 µM and inactive = higher.
Reported GI50 values for the following compounds.

Complete the entry with GI50 for COc1cc(/C=C2\CCC(CN(C)C)C2=O)ccc1OC(=O)c1ccccc1 (stereo not drawn)
15.8 µM (inactive)

Quickly give me recorded GI50 for "N#Cc1ccccc1/C=N/O"
> 59.4 µM (inactive)

Check the records and state GI50 for O=C(Nc1cccc(C(F)(F)F)c1)C(=O)C1NC(=S)NC1=O (stereo not drawn)
> 100 µM (inactive)

====

System: U-251
Experiment: NCI tumour cell line growth inhibition, 48 h
The source made the active and inactive calls. Rule as the data show it: active = GI50 up to about 1.1 µM and inactive = higher. Where a SMILES comes first, the peptide text is derived from it. Residues, ends and D or L forms follow the SMILES beside them. The star is where a group is joined. *: point of attachment. Ethyl(2-NMe3+) = C[N+](C)(C)CC*; Cbz = O=C(OCc1ccccc1)*; Boc = CC(C)(C)OC(=O)*; tBu = CC(C)(C)*
Mark one answer only. Choices: yes (1) for active, no (0) for inactive

COMPOUND | CLASS_ASSIGNMENT
c1ccc(-c2nc3sccn3n2)cc1 | no (0)

Which result was noted for this compound in the test: COC(=O)C(=O)C(C(=O)C=C(C)C)C(=O)C(=O)Nc1ccc(Cl)cc1C (stereo not given)
no (0)

Write down the call the test reported for this compound. Item: CC1=NN(c2ccccc2Cl)C2(C1)SCC(=O)N2c1nc2ccccc2s1 (stereo not given)
no (0)

So what was the verdict on "O/N=C1/CCC/C1=C\c1ccccc1" in this test?
no (0)

Fill in: this test's call for "ClC(Cl)(Cl)C1=N[C@H]2[C@H](Br)[C@@H]3O[C@@H](c4ccccc4)[C@H](c4ccccc4)O[C@@H]3[C@H]2O1" is ___
no (0)

Field: outcome | Entry: CC(OC(C)(C)C)C(NC(=O)C(CCCCNC(=O)OC(C)(C)C)NC(=O)C(Cc1c[nH]c2ccccc12)NC(=O)C(Cc1ccccc1)NC(=O)OCc1ccccc1)C(=O)NC(Cc1ccccc1)C(=O)O (stereo not given) (Cbz-FWK(Boc)T(tBu)F-OH; configuration not given here)
no (0)

Outcome logged for CC(NC1CCCC[C@H]1O)c1ccccc1 (stereo not given in full) in this assay:
no (0)

What was the test verdict on "CCOC(=O)c1ccc(Nc2nc3cc(C(F)(F)F)ccc3nc2C(=O)OCC)cc1" ?
no (0)

Dear colleague, could you share the recorded outcome for "Cc1nc2c(cc1C(=O)NN)c(=O)n(C)c(=O)n2C" when you have a moment?
no (0)

What call does the record list for CCC(C)CNC1=C(NC(C)=O)C(=O)c2ccccc2C1=O (stereo not given) ?
no (0)

Returns: the outcome recorded for OC1(c2ccc(Cl)cc2)c2ccccc2C2=NCc3ccccc3CN21 (stereo not given) in this assay.
no (0)

In this assay, the call recorded for CC(C)[C@H](C)/C=C/[C@@H](C)C1CC[C@H]2[C@@]34C=C[C@]5(C[C@@H](O)CC[C@]5(C)[C@H]3CC[C@]12C)OO4 (stereo not given in full) was what?
no (0)

// return assay outcome for Nc1ncnc2c1ncn2[C@]1(CO)C=C(CO)C(O)C1O (stereo not given in full)
no (0)

Give the logged outcome of this assay for the following compound: "CCOc1cc(-c2nc3cc(F)ccc3s2)ccc1O"
no (0)

Hi team, can someone confirm the assay call for NC(Cc1c2ccccc2cc2ccccc12)C(=O)O (stereo not given) ?
no (0)

How was "C#CCNC(=O)N(CC#C)N=O" classified in this test?
no (0)

Each compound tested received a call. Report the one for "Cc1ccc2c(/C=C/c3ccc(N(C)C)cc3)ccc(C(C)C)cc1-2" .
no (0)

Hi, do you know how CC(NC(=O)C(Cc1ccc(OCC[N+](C)(C)C)cc1)NC(=O)OC(C)(C)C)C(=O)NC(Cc1ccccc1)C(=O)NCC(N)=O (stereo not given) (Boc-Y(Ethyl(2-NMe3+))AFG-NH2; configuration not given here) came out in this test?
no (0)

Hi team, can someone confirm the assay call for "CCOC(=O)C1=C(OS(=O)(=O)C(F)(F)F)CCCC1" ?
no (0)

Ref: ChEMBL document CHEMBL1201862
